Give pEC50 for every item shown.
# Test system: Human immunodeficiency virus 1
# test protocol: Antiviral activity against HIV-1 3B infected in human MT4 cells assessed as inhibition of virus-induced cytopathic effect by MTT assay
# Type: functional, organism-based
# condition info: Human immunodeficiency virus 1, 3B
One number for each entry, as −log10 of the molar value.

[
  {
    "chemical structure": "CO/N=C(\\Cl)CCC/C=C(/c1ccc(C#N)cc1)c1cc(C)c(OC)c(C(=O)SC)c1",
    "pEC50": 5.62
  },
  {
    "chemical structure": "CO/N=C(\\Cl)c1cc(/C(=C\\CCCc2nnc(C)o2)c2ccc(C#N)cc2)cc(C)c1OC",
    "pEC50": 5.44
  }
]

As a next step, examine the compound that follows.
Lookup: Recorded pEC50 of CO/N=C(\Cl)c1cc(/C(=C\CCCc2nnc(C)o2)c2cccc(C#N)c2)cc(C)c1OC , please.
Found: 5.58

* * *

# test protocol: Cytotoxicity against mock-infected human MT4 cells
# Type: cell-based
Give CC50 for every item shown.
Give bare numbers, in µM.

Study these solved cases before continuing.
[
  {
    "chemical structure": "CO/N=C(\\Cl)c1cc(/C(=C\\CCCc2nnc(C)o2)c2ccc(C#N)cc2)cc(C)c1OC",
    "CC50, µM": 30.2
  },
  {
    "chemical structure": "CO/N=C(\\F)c1cc(/C(=C\\CCCc2nnc(C)o2)c2ccc(C#N)cc2)cc(C)c1OC",
    "CC50, µM": 11.4
  },
  {
    "chemical structure": "CO/N=C(\\Cl)c1cc(/C(=C\\CCCc2nc(C)no2)c2cc(C)c3onc(OC)c3c2)cc(C)c1OC",
    "CC50, µM": 21.2
  }
]

Fill in CC50 for each of the 2 compounds listed.
1. CO/N=C(\F)c1cc(/C(=C\CCCc2nc(C)no2)c2cccc(C#N)c2)cc(C)c1OC
2. CO/N=C(\Cl)CCC/C=C(\c1cc(C)c(OC)c(C(=O)SC)c1)c1cc(C)c2onc(OC)c2c1

Found:
4.04
16.3

* * *

# test protocol: Cytotoxicity against mock-infected human MT4 cells
# Assay type: cell-based
CC50 strictly under 20 µM means Met; at 20 µM or over means Not met.

[
  {
    "chemical structure": "CO/N=C(\\Cl)c1cc(/C(=C\\CCCc2nnc(C)o2)c2cc(C)c3oc(=O)n(C)c3c2)cc(C)c1OC",
    "category": "Met"
  },
  {
    "chemical structure": "CO/N=C(\\Cl)c1cc(/C(=C\\CCCc2nc(C)no2)c2cc(C)c3oc(=O)n(C)c3c2)cc(C)c1OC",
    "category": "Not met"
  },
  {
    "chemical structure": "CO/N=C(\\Cl)c1cc(/C(=C\\CCCc2nnc(C)o2)c2cccc(C#N)c2)cc(C)c1OC",
    "category": "Not met"
  },
  {
    "chemical structure": "O=c1[nH]cnc2c1ncn2[C@H]1CC[C@@H](CO)O1",
    "category": "Not met"
  },
  {
    "chemical structure": "CO/N=C(\\F)c1cc(/C(=C\\CCCc2nc(C)no2)c2cc(C)c3onc(OC)c3c2)cc(C)c1OC",
    "category": "Met"
  },
  {
    "chemical structure": "CO/N=C(\\F)c1cc(/C(=C\\CCCN2CCOC2=O)c2cc(C)c3onc(OC)c3c2)cc(C)c1OC",
    "category": "Not met"
  },
  {
    "chemical structure": "CO/N=C(\\F)c1cc(/C(=C\\CCCN2CCOC2=O)c2ccc(C#N)cc2)cc(C)c1OC",
    "category": "Not met"
  }
]

Next item in the queue.
Lookup: Strictly below 20 µM: is that where CC50 of COc1c(C)cc(/C(=C\CCCc2nnc(C)o2)c2cc(C)c3oc(=O)n(C)c3c2)cc1C(=O)SC sits?
Found: Met

* * *

# Tested on: Human immunodeficiency virus 1
# test protocol: Antiviral activity against HIV-1 3B expressing reverse transcriptase K103N mutant infected in human MT4 cells assessed as inhibition of virus-induced cytopathic effect by MTT assay
# Assay type: functional, organism-based
# condition info: Human immunodeficiency virus 1, 3B
quantity measured: pEC50
Give bare numbers, as −log10 of the molar value.

Study these solved cases before continuing.
[
  {
    "chemical structure": "CC(C)Nc1cccnc1N1CCN(C(=O)c2cc3cc(NS(C)(=O)=O)ccc3[nH]2)CC1",
    "reported measurement": 5.41
  },
  {
    "chemical structure": "O=C1Nc2ccc(Cl)cc2[C@@](C#CC2CC2)(C(F)(F)F)O1",
    "reported measurement": 6.72
  }
]

Lookup: Recorded pEC50 of Cc1cn([C@H]2C[C@H](N=[N+]=[N-])[C@@H](CO)O2)c(=O)[nH]c1=O , please.
Found: 8.22

* * *

# test protocol: Cytotoxicity against mock-infected human CEM-SS cells
# Assay type: cell-based
quantity measured: CC50 (µM)
Answers are plain numbers, in µM.

Study these solved cases before continuing.
[
  {
    "chemical structure": "CO/N=C(\\F)c1cc(/C(=C\\CCCc2nnc(C)o2)c2cc(C)c3oc(=O)n(C)c3c2)cc(C)c1OC",
    "quantity measured": "CC50",
    "output unit": "µM",
    "reported measurement": 6.45
  },
  {
    "chemical structure": "CO/N=C(\\Cl)c1cc(/C(=C\\CCCN2CCOC2=O)c2ccc(C#N)cc2)cc(C)c1OC",
    "quantity measured": "CC50",
    "output unit": "µM",
    "reported measurement": 6.48
  },
  {
    "chemical structure": "CO/N=C(\\F)c1cc(/C(=C\\CCCc2nc(C)no2)c2ccc(C#N)cc2)cc(C)c1OC",
    "quantity measured": "CC50",
    "output unit": "µM",
    "reported measurement": 13.4
  },
  {
    "chemical structure": "CO/N=C(\\Cl)c1cc(/C(=C\\CCCc2nnc(C)o2)c2cc(C)c3oc(=O)n(C)c3c2)cc(C)c1OC",
    "quantity measured": "CC50",
    "output unit": "µM",
    "reported measurement": 4.67
  },
  {
    "chemical structure": "CO/N=C(\\F)c1cc(/C(=C\\CCCN2CCOC2=O)c2cc(C)c3onc(OC)c3c2)cc(C)c1OC",
    "quantity measured": "CC50",
    "output unit": "µM",
    "reported measurement": 17.8
  },
  {
    "chemical structure": "CO/N=C(\\F)c1cc(/C(=C\\CCCc2nc(C)no2)c2cc(C)c3onc(OC)c3c2)cc(C)c1OC",
    "quantity measured": "CC50",
    "output unit": "µM",
    "reported measurement": 5.39
  },
  {
    "chemical structure": "CO/N=C(\\Cl)c1cc(/C(=C\\CCCN2CCOC2=O)c2cc(C)c3oc(=O)n(C)c3c2)cc(C)c1OC",
    "quantity measured": "CC50",
    "output unit": "µM",
    "reported measurement": 5.99
  }
]

As a next step, examine the molecule that follows.
Lookup: Recorded CC50 of CO/N=C(\Cl)c1cc(/C(=C\CCCc2nc(C)no2)c2cc(C)c3onc(OC)c3c2)cc(C)c1OC , please.
Found: 11.4

* * *

# Test system: Human immunodeficiency virus 1
# test protocol: Antiviral activity against HIV-1 3B expressing wild type reverse transcriptase infected in human MT4 cells assessed as inhibition of virus-induced cytopathic effect by MTT assay
# Format: functional, organism-based
# condition info: Human immunodeficiency virus 1, 3B
Give EC50 for every item shown.
Numbers only, in nM.

[
  {
    "chemical structure": "CO/N=C(\\Cl)c1cc(/C(=C\\CCCc2nnc(C)o2)c2cc(C)c3oc(=O)n(C)c3c2)cc(C)c1OC",
    "EC50 [nM]": 780
  },
  {
    "chemical structure": "COc1c(C)cc(/C(=C\\CCCc2nnc(C)o2)c2cc(C)c3oc(=O)n(C)c3c2)cc1C(=O)SC",
    "EC50 [nM]": 200
  },
  {
    "chemical structure": "CO/N=C(\\F)c1cc(/C(=C\\CCCc2nnc(C)o2)c2cc(C)c3oc(=O)n(C)c3c2)cc(C)c1OC",
    "EC50 [nM]": 550
  },
  {
    "chemical structure": "CC(C)Nc1cccnc1N1CCN(C(=O)c2cc3cc(NS(C)(=O)=O)ccc3[nH]2)CC1",
    "EC50 [nM]": 22
  }
]

Fill in EC50 for each of the 2 compounds listed.
1. Cc1cn([C@H]2C[C@H](N=[N+]=[N-])[C@@H](CO)O2)c(=O)[nH]c1=O
2. Cc1cc(C#N)cc(C)c1Oc1nc(Nc2ccc(C#N)cc2)nc(N)c1Br

Found:
16
3.2
